Tested on: Rhizoctonia solani
Assay: whole plant or invertebrate
Assay type: in vivo, Rhizoctonia solani (rice plant, Chukyo Asahi)
Details: in Oryza sativa, 120 h, read-out: Preventive value
Entries and their pest or weed control at 100 ppm values follow.

[
  {
    "smilesRepr": "O=[N+]([O-])c1cc(C(F)(F)F)c(Cl)c([N+](=O)[O-])c1Nc1c(Cl)cncc1Cl",
    "observable": "pest or weed control at 100 ppm",
    "valueObserved": "100%"
  },
  {
    "smilesRepr": "CC(C)Oc1c(C(F)(F)F)cc([N+](=O)[O-])c(Nc2ncc(C(F)(F)F)cc2Cl)c1[N+](=O)[O-]",
    "observable": "pest or weed control at 100 ppm",
    "valueObserved": "95%"
  },
  {
    "smilesRepr": "CCOc1c(C(F)(F)F)cc([N+](=O)[O-])c(Nc2ncc(C(F)(F)F)cc2Cl)c1[N+](=O)[O-]",
    "observable": "pest or weed control at 100 ppm",
    "valueObserved": "100%"
  }
]

# next molecule below
Task item: Which value of pest or weed control at 100 ppm has been reported for `COc1ccc(Nc2c([N+](=O)[O-])cc([N+](=O)[O-])cc2C(F)(F)F)nc1` in the records?
Reply: 93%
